B1: CPEB3 Ribozyme (parent)
chain: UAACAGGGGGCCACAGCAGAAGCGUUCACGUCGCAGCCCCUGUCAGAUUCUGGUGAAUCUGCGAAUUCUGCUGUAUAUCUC

variants of: B1; experiment: self-cleavage, relative activity (ratio to wild type); higher = more cleavage; in vitro, sequencing
Outcome: class 1 for self-cleavage of at least 0.3; class 0 for anything lower.

{"Record sequence": "UAACAGGGGGCCACAGCAGAAGCGUUCACGUCGCAGCCACUGUCAGAUUCUGGUGAAUCUGCGAACUCUGCUGUAUAUCUC [C39A U66C]", "Label class": "class 1"}
{"Record sequence": "UAACAGGGUGCCACAGCAGAAGCGUUCACGUCGCAGCCCCUGUCAGAUUCUGGUGAAUCUGCGAAUUCGGCUGUAUAUCUC [G9U U69G]", "Label class": "class 0"}
{"Record sequence": "UAACAGGGGGCCACAGCAGAAGCGUUCACGUCGCAGCCCCUGUCAGAUUCUGGUGAAUCUGCGGAUUCUGCUGUAUAUUUC [A64G C79U]", "Label class": "class 1"}
{"Record sequence": "UAACAGGGGGCCACAGCAGAAGCGCUCACGUCGCAGCCCCUGUCAGAUUCUGGUGAACCUGCGAAUUCUGCUGUAUAUCUC [U25C U58C]", "Label class": "class 0"}
{"Record sequence": "UAACAGGGGGCCACAGCAGAAGCGUUCACGUCGCAGCCCCUGUCAGAUUCUGGUGAAUCUGCGCAUUCUGCUGUAUUUCUC [A64C A77U]", "Label class": "class 0"}

Can UAACAGGGGGCCACAGCUGAAGCGUUCACGUCGCAGCCCCUGUCAGAUUCUGGUGAAUCUGCGAUUUCUGCUGUAUAUCUC [A18U A65U] be said to have self-cleavage at or above 0.3?
class 0

Can UAACAGGGGGCCACAGCAGAAGCGUUCACGUCGCAGCCCCUGUCAGAUUCUGGUGAAUCUGCGCACUCUGCUGUAUAUCUC [A64C U66C] be said to have self-cleavage at or above 0.3?
class 0

Can UAACAGGGGGCCACAGCAGAAGCGUUCACGUCGCAGCCCCUGUCAGAUUCUAGUGAAUCAGCGAAUUCUGCUGUAUAUCUC [G52A U60A] be said to have self-cleavage at or above 0.3?
class 1

Can UAACAGGGGGCCACAGCAGAAGCGUUCACGUCGCAGUCCCUGUCAGAUUCUGGUGAAUCUACGAAUUCUGCUGUAUAUCUC [C37U G61A] be said to have self-cleavage at or above 0.3?
class 0

Can UAACAGGGGGCCACAACAGAAGCGUUCACGUCGCAGCCCCUGUCAGAUUCUGGUGAAUCUGCGAAUUCUGCGGUAUAUCUC [G16A U72G] be said to have self-cleavage at or above 0.3?
class 0

Can UAACAGGGGGCCACAGCAGAAGCGUUCAAGUCGCAGCCCCCGUCAGAUUCUGGUGAAUCUGCGAAUUCUGCUGUAUAUCUC [C29A U41C] be said to have self-cleavage at or above 0.3?
class 1

Can UAACAGGGGGCCACAGCAGAAGCGUUCACGUCGCAGCCCCUGUCGGAUUCUGGUGAAUCGGCGAAUUCUGCUGUAUAUCUC [A45G U60G] be said to have self-cleavage at or above 0.3?
class 0

Can UAACAGGGGGCCACAGCAGAAGCGUUCACGUCGCAGCCCCUGUCAGAUACUGGUGAAUCUGCGAAUUCUGCUGUAUAGCUC [U49A U78G] be said to have self-cleavage at or above 0.3?
class 1

Can UAACAGGGGGACACAGCAGAAGCGUUCACGUCGCAGCCCCUGUCAGAUUCUGGUGAAUCUGCGAAUUCUGCUGCAUAUCUC [C11A U74C] be said to have self-cleavage at or above 0.3?
class 1

Can UAACAGGGGGCCACAGCUGAAGCGUUCACGUCGCAGCCCCUGUAAGAUUCUGGUGAAUCUGCGAAUUCUGCUGUAUAUCUC [A18U C44A] be said to have self-cleavage at or above 0.3?
class 0

Can UAACAGGGGGCCACAGCAGAAGCGUUCACGGCGCAGCCCCUGUCAGAUUCCGGUGAAUCUGCGAAUUCUGCUGUAUAUCUC [U31G U51C] be said to have self-cleavage at or above 0.3?
class 1

Can UAACAGGGGGCCACAGCGGAAGCGUUCACAUCGCAGCCCCUGUCAGAUUCUGGUGAAUCUGCGAAUUCUGCUGUAUAUCUC [A18G G30A] be said to have self-cleavage at or above 0.3?
class 0
